Values compiled from patent US20240368243A1.

Target: … (SEQ ID NO: 1)-HLA-A*02 complex (soluble, biotinylated) (human)
Assay: SPR (BIAcore) or BLI (Octet) per Example 3, biotinylated pHLA immobilised, 25 C
Measured t1/2, listed per entry.
I only need the number, in h, no unit after it.

ImmTAC molecule comprising a79 (SEQ ID NO: 7) and b71 (SEQ ID NO: 15) (TCR, part only; not given: anti-CD3 scFv, linker, TCR constants, part only) TCR alpha, part: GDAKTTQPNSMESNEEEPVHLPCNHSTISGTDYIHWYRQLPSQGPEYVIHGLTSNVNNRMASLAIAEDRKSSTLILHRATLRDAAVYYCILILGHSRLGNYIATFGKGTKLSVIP TCR beta, part: DGGITQSPKYLFRKEGQNVTLSCEQNLNHDAMYWYRQDPGQGLRLIYYSQIMGDEQKGDIAEGYSVSREKKESFPLTVTSAQKNPTAFYLCASSWWTGGSAPIYFGPGTRLTVT = 14.9
ImmTAC molecule comprising a79 (SEQ ID NO: 7) and b75 (SEQ ID NO: 20) (TCR, part only; not given: anti-CD3 scFv, linker, TCR constants, part only) TCR alpha, part: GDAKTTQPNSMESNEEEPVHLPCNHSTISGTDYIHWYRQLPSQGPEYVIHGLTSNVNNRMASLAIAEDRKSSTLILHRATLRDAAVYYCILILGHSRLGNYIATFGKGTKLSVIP TCR beta, part: DGGITQSPKYLFRKEGQNVTLSCEQNLNHDAMYWYRQDPGQGLRLIYYSQIMGDEQKGDIAEGYSVSREKKESFPLTVTSAQKNPTAFYLCASSWWTGGSAPISFGPGTRLTVT = 16.9

Request: Input ImmTAC molecule comprising a79 (SEQ ID NO: 7) and b67 (SEQ ID NO: 13) (TCR, part only; not given: anti-CD3 scFv, linker, TCR constants, part only) TCR alpha, part: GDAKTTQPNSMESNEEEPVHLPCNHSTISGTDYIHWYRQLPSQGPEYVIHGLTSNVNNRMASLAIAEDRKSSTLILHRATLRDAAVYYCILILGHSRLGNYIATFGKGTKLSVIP TCR beta, part: DGGITQSPKYLFRKEGQNVTLSCEQNLNHDAMYWYRQDPGQGLRLIYYSQIMGDEQKGDIAEGYSVSREKKESFPLTVTSAQKNPTAFYLCASSWWTSGSAPIRFGPGTRLTVT , output reported t1/2.
Response: 12.7
